- Tested On: human PD-1 (human, UniProt Q15116 25-288)
- Sequence (Q15116 25-288 limits assumed): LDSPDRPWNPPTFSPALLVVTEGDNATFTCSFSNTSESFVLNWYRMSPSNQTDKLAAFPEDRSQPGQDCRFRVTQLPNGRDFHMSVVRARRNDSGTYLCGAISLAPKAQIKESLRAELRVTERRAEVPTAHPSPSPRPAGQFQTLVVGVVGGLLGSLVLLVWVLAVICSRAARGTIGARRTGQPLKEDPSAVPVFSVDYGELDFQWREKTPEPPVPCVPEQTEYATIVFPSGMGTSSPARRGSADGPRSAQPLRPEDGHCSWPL
- Assay Procedure: cell-based or functional assay
Catalogue of M07e-hPD-1 cell proliferation ratio (%) at 0.01 nM readings, one per entry.
Endpoint Label: M07e-hPD-1 cell proliferation ratio (%) at 0.01 nM

[
  {
    "Binder": "A-N88D (Fc fusion, also called PD-1-IL-2v (N88D); not shown: IgG1 hinge (C220S) + Fc Knob chain (L234A, L235A, S354C, T366W, EU); D356/L358 or E356/M358 ver; IgG1 hinge (C220S) + Fc Hole chain (L234A, L235A, Y349C, T366S, L368A, Y407V; may have H435R, Y436F; EU)) chain (part 1 of 2): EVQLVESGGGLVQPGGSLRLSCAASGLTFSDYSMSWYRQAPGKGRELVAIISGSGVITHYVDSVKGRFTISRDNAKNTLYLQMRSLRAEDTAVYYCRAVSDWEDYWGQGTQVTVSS chain (part 2 of 2): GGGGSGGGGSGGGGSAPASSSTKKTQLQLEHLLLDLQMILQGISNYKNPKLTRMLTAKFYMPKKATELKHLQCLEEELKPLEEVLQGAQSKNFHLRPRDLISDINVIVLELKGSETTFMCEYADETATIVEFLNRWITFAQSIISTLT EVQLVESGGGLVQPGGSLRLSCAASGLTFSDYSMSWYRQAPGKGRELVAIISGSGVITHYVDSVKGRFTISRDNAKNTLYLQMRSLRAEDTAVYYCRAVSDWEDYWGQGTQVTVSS",
    "Unit Spec": "%",
    "Recorded Measurement": 13.4
  },
  {
    "Binder": "A-N88D-M08 (Fc fusion, also called A-N88D-M8; not shown: IgG1 hinge (C220S) + Fc Knob chain as in A-N88D; IgG1 hinge (C220S) + Fc Hole chain as in A-N88D) chain (part 1 of 2): EVQLVESGGGLVQPGGSLRLSCAASGLTFSDYSMSWYRQAPGKGRELVAIISGSGVITHYVDSVKGRFTISRDNAKNTLYLQMRSLRAEDTAVYYCRAVSDWQDYWGQGTQVTVSS chain (part 2 of 2): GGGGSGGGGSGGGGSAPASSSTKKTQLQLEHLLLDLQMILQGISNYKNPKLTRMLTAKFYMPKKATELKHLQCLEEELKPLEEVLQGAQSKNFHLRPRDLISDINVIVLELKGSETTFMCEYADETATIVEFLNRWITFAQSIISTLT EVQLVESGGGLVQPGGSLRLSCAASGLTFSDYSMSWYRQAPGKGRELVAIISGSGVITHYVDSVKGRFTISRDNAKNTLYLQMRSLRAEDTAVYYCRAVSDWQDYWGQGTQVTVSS",
    "Unit Spec": "%",
    "Recorded Measurement": 11.9
  },
  {
    "Binder": "A-N88D-M15 (Fc fusion, not shown: IgG1 hinge (C220S) + Fc Knob chain as in A-N88D; IgG1 hinge (C220S) + Fc Hole chain as in A-N88D) chain (part 1 of 2): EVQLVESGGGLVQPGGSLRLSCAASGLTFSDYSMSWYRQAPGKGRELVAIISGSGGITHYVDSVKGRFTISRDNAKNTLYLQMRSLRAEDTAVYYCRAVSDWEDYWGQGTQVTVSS chain (part 2 of 2): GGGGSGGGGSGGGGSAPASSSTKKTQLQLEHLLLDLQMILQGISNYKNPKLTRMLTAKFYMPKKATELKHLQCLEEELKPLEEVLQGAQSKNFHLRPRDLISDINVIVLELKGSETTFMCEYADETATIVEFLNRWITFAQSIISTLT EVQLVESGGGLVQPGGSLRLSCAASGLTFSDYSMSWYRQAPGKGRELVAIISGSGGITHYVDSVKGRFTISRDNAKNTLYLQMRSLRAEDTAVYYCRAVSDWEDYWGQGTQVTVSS",
    "Unit Spec": "%",
    "Recorded Measurement": 7
  }
]
